// reported protein stability index for each item listed
B1: VAMP4 (parent)
chain: FLRGPSGPRFGPRNDKIKHVQNQV

Variants of: B1
test.protocol: protein stability index of a GFP-peptide fusion (GPS, HEK-293T) (PSI 1-6); higher = more stable;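 further: lentivirally expressed fusions sorted by FACS into six bins by GFP to DsRed ratio, PSI derived from sequencing read proportions per bin multiplied by bin number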
conditions: c terminus: a fixed tail appended

residue.string	protein stability index
FLRGPSGMRFGPRNDKIKHVQNQV [P8M]	2.53
FLRGPSGPRFGPRCDKIKHVQNQV [N14C]	2.73
FLRGPSGPRFGPRNVKIKHVQNQV [D15V]	2.85
FLRGPSGPRFGPRNDKIKHVQLQV [N22L]	2.27
RLRGPSGPRFGPRNDKIKHVQNQV [F1R]	3.35
MLRGPSGPRFGPRNDKIKHVQNQV [F1M]	3.27
FLRGPRGPRFGPRNDKIKHVQNQV [S6R]	2.92
FLRGPSGPRFDPRNDKIKHVQNQV [G11D]	2.63
FLRGLSGPRFGPRNDKIKHVQNQV [P5L]	2.59
FDRGPSGPRFGPRNDKIKHVQNQV [L2D]	3.08
FLRGPSGPRFNPRNDKIKHVQNQV [G11N]	2.95
FLRGPSGPRFGPRNDKIQHVQNQV [K18Q]	3.34
FLRGPSVPRFGPRNDKIKHVQNQV [G7V]	2.44
FLRGPSGNRFGPRNDKIKHVQNQV [P8N]	2.63
FLRGPSGPRFGPRNDKIKHVQTQV [N22T]	3.02
FLRGPSGPRFGPRNDKIKHVQNQW [V24W]	2.82
FLRGPSGPRFGPFNDKIKHVQNQV [R13F]	2.35
FLRGPSGPRFGPRNDKIHHVQNQV [K18H]	2.73
FLRGSSGPRFGPRNDKIKHVQNQV [P5S]	2.96
FLRGPSGPRFGPRNDKPKHVQNQV [I17P]	2.84
FLRGPSGPRFGPRNDKICHVQNQV [K18C]	2.04
FLRGPSGPRFGPRNDKIKHVQNQM [V24M]	3.02

Origin of values: the supplement of paper PMC10567573
